Values compiled from paper PMC9841530.

- measurementProtocol: Thermodynamic solubility in PBS
- Type: physicochemical
- testContext: PBS, pH 7.5
reportedMetric: solubility at 90 min (µM)
Give the value, in units of µM, as a plain number.

solubility at 90 min measured on CCOc1ccc(NC(=O)c2cc3nccc(-c4ccc(OC)c(OC)c4)n3n2)cc1 = 0.059
